Hey, just so you know, these numbers are from patent US20070117743A1.

tested on: A-549; assay: SRB colorimetric assay of cell growth and viability, A-549; assay type: cell-based, human; conditions: read-out: LC50 (lethal concentration at 50%); A-549 cells, 48 hours exposure, SRB
Where a SMILES comes first, the peptide text is derived from it. Bridges are numbered along the chain shown (N, C = ends). [ ]: non-standard residue; d: D form. The star is where a group is joined. d(aIle) = CC[C@H](C)[C@@H](N)C(=O)O; d(aThr) = C[C@@H](O)[C@@H](N)C(=O)O; Hexanoyl(5-Me) = CC(C)CCCC(=O)*; Orn = NCCC[C@H](N)C(=O)O; Dhb = C/C=C(\N)C(=O)O
REPORTED_PROPERTY: CC50 (µM)

INSERT INTO assay_data (compound, reported_property, endpoint_result) VALUES
  ('C/C=C1\NC(=O)[C@H](Cc2ccccc2)NC(=O)[C@@H](C(C)C)NC(=O)[C@@H]([C@@H](C)CC)NC(=O)[C@H](NC(=O)[C@H](NC(=O)[C@H](CCCN)NC(=O)[C@H]2CCCN2C(=O)[C@H](NC(=O)[C@@H](NC(=O)[C@@H](NC(=O)[C@H](NC(=O)[C@]23CCC(C)(C)C[C@H]2C2=CC[C@@H]4[C@@]5(C)CC[C@H](O)C(C)(C)[C@@H]5CC[C@@]4(C)[C@]2(C)CC3)C(C)C)[C@@H](C)O)C(C)C)C(C)C)[C@@H](C)CC)[C@@H](C)OC(=O)[C@H](C(C)C)NC1=O [Compound 102, [AO^14]-KF]', 'CC50', 5.54),
  ('C/C=C1\NC(=O)[C@H](Cc2ccccc2)NC(=O)[C@@H](C(C)C)NC(=O)[C@@H]([C@@H](C)CC)NC(=O)[C@H](NC(=O)[C@H](NC(=O)[C@H](CCCN)NC(=O)[C@H]2CCCN2C(=O)[C@H](NC(=O)[C@@H](NC(=O)[C@@H](NC(=O)[C@H](NC(=O)CCCC(C)C)C(C)C)[C@@H](C)O)C(C)C)C(C)C)C(C)C)[C@@H](C)OC(=O)[C@H](C(C)C)NC1=O [Compound 105, [D-Val^7]-KF] ({Hexanoyl(5-Me)}-[dV]TV[dV][dP][Orn][dV][d(aThr)][d(aIle)][dV]F[Dhb]V; ester 8-C)', 'CC50', 3.04),
  ('C/C=C1\NC(=O)[C@H](Cc2ccccc2)NC(=O)[C@@H](C(C)C)NC(=O)[C@@H]([C@@H](C)CC)NC(=O)[C@H](NC(=O)[C@H](NC(=O)[C@H](CCCN)NC(=O)[C@H]2CCCN2C(=O)[C@H](NC(=O)[C@@H](NC(=O)[C@@H](NC(=O)[C@H](NC(=O)CCCC(C)C)C(C)C)[C@@H](C)O)C(C)C)C(C)C)[C@H](C)CC)[C@@H](C)OC(=O)[C@H](C(C)C)NC1=O [Compound 104, [D-Ile^7]-KF]', 'CC50', 1.51),
  ('C/C=C1\NC(=O)[C@H](Cc2ccccc2)NC(=O)[C@@H](C(C)C)NC(=O)[C@@H]([C@@H](C)CC)NC(=O)[C@H](NC(=O)[C@@H](CS)NC(=O)[C@H](CCCN)NC(=O)[C@H]2CCCN2C(=O)[C@H](NC(=O)[C@H](CS)NC(=O)[C@@H](NC(=O)[C@H](NC(=O)CCCC(C)C)C(C)C)[C@@H](C)O)C(C)C)[C@@H](C)OC(=O)[C@H](C(C)C)NC1=O [Compound 107, [D-Cys^7, L-Cys^11]-KF] ({Hexanoyl(5-Me)}-[dV]TC[dV][dP][Orn][dC][d(aThr)][d(aIle)][dV]F[Dhb]V; ester 8-C)', 'CC50', 6.8);
